target: UniProt:P07949
Sequence (P07949 29-1114): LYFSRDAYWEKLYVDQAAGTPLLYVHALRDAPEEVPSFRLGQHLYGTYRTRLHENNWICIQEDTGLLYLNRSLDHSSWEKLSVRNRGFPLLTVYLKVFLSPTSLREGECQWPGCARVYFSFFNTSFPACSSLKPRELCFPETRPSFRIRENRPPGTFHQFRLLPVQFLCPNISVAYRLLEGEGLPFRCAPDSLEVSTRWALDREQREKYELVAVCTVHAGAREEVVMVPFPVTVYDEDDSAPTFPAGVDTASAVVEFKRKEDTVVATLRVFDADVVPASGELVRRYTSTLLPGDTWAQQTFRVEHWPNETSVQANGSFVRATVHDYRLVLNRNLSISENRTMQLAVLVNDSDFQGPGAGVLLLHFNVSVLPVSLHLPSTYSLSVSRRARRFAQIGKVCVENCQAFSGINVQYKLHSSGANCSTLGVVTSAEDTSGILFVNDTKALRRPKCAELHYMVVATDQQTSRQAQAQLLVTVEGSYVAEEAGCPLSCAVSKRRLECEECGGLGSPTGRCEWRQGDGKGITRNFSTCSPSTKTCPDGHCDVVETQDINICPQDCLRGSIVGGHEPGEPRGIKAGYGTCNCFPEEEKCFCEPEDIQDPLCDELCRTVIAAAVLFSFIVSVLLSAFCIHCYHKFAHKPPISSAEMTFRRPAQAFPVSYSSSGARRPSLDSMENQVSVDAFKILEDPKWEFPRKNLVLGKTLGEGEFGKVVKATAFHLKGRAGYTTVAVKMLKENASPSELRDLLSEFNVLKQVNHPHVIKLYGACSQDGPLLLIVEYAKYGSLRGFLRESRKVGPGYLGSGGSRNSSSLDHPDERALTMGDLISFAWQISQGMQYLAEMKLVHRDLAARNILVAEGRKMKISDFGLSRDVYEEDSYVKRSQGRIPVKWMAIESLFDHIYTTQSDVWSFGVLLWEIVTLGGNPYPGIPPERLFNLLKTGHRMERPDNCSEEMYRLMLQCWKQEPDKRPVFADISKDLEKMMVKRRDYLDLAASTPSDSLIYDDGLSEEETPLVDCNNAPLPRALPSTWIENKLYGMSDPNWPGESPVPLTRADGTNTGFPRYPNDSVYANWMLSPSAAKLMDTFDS
pIC50: −log10 of the molar value.
Value Kind: pIC50

Query string: Requested read-out pIC50, target or system UniProt:P07949, entry N#Cc1cnn2cc(C3=CCOCC3)cc(-c3ccc(N4CCN(Cc5c(F)cccc5F)CC4)nc3)c12 [Trifluoroacetate of compound 22]
Result string: 9.33

(1) COc1ccc(CN2C3CC2CN(c2ccc(-c4cc(N5CCN(C(C)=O)CC5)cn5ncc(C#N)c45)cn2)C3)cn1 [Trifluoroacetate of compound 20]
(2) COc1ccc(CN2C3CC2CN(c2ccc(-c4cc(N5CCC(OC)C5)cn5ncc(C#N)c45)cn2)C3)cn1 (stereo not drawn) [Trifluoroacetate of compound 77]
(3) COc1ccc(CN2C3CC2CN(c2ccc(-c4cc(C5=CCOC5)cn5ncc(C#N)c45)cn2)C3)cn1 [Trifluoroacetate of compound 54]
Query string: Please produce an ascending ranking of these compounds based on pIC50. // respond by listing labels in the order requested
Result string: 2, 3, 1
(2: 8.36, 3: 8.62, 1: 9.05)
